- TARGET_OR_SYSTEM: T1, human TGFβ1 (human, UniProt P01137 279-390)
- T1 construct: also called TGFβ1 homodimer
- T1 sequence (P01137 279-390 limits assumed): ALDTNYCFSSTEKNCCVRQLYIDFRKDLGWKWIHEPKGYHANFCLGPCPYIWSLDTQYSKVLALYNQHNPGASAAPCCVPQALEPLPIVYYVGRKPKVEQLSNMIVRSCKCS
- MEASUREMENT_PROTOCOL: Biacore off-rate vs wt GC1008, 50 nM
QUANTITY: kd var/kd wt
Reply with the value as a number alone.

Example entries begin here.
[
  {
    "BINDER": "D56R (antibody, V domains shown, GC1008 IgG4 variant) VH: QVQLVQSGAEVKKPGSSVKVSCKASGYTFSSNVISWVRQAPGQGLEWMGGVIPIVRIANYAQRFKGRVTITADESTSTTYMELSSLRSEDTAVYYCASTLGLVLDAMDYWGQGTLVTVSS VL: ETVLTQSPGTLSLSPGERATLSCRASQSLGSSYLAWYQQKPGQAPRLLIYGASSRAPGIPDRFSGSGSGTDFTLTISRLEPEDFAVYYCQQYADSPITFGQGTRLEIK",
    "kd var/kd wt": 1
  },
  {
    "BINDER": "Y27L (antibody, V domains shown, GC1008 IgG4 variant) VH: QVQLVQSGAEVKKPGSSVKVSCKASGLTFSSNVISWVRQAPGQGLEWMGGVIPIVDIANYAQRFKGRVTITADESTSTTYMELSSLRSEDTAVYYCASTLGLVLDAMDYWGQGTLVTVSS VL: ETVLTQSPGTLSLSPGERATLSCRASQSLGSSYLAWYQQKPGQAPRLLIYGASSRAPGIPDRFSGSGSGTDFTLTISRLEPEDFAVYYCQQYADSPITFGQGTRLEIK",
    "kd var/kd wt": 1.4
  }
]

Next, consider the following binder.
Need kd var/kd wt of Y27E (antibody, V domains shown, GC1008 IgG4 variant) VH: QVQLVQSGAEVKKPGSSVKVSCKASGETFSSNVISWVRQAPGQGLEWMGGVIPIVDIANYAQRFKGRVTITADESTSTTYMELSSLRSEDTAVYYCASTLGLVLDAMDYWGQGTLVTVSS VL: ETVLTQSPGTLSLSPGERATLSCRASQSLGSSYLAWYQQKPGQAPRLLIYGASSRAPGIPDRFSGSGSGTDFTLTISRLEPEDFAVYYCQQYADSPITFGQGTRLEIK , thanks.
1.2
